These data points were gathered from PubChem BioAssay (NCI).

test: NCI Yeast Anticancer Drug Screen. Data for the mec2-1 strain (AID 157); conditions: S. cerevisiae mec2-1 strain, at 50.0 µM
About 79,000 compounds went through this panel and 15% of them were active in at least one assay; those are over-represented in the sample as a whole. Active and inactive are the calls of the source. No stated cut-off is given here; in the data, active means growth inhibition above about 70%; inactive means the rest.
Please reply with one of these outcomes: active, inactive

Name the outcome recorded for CC(=O)[O-].O=C([CH-]C(=O)c1ccccc1)c1ccccc1.O=C([CH-]C(=O)c1ccccc1)c1ccccc1.[Y+3] in the assay. active

Name the outcome recorded for Cc1ccc2ccccc2c1 in the assay. inactive

Name the outcome recorded for CC(=O)[O][Pb]([O]C(C)=O)([O]C(C)=O)[c]1ccccc1 in the assay. active

Name the outcome recorded for O=C(N/N=C/c1cc(Br)cc(Br)c1[O-])c1ccccc1O.O=C(N/N=C/c1cc(Br)cc(Br)c1[O-])c1ccccc1O.[Mn+2] in the assay. active

Name the outcome recorded for Cc1ccc(C2=NOP(c3ccccc3)(c3ccccc3)(c3ccccc3)C2)cc1 in the assay. inactive

---
Name the outcome recorded for CC1(C)N=C(N)N=C(N)N1c1ccc(CCc2cccc(Cl)c2S(=O)(=O)F)c(Cl)c1 in the assay. active

Name the outcome recorded for COc1ccccc1/C=C/[N+](=O)[O-] in the assay. active

Name the outcome recorded for CC(C)CCC[C@@H](C)[C@H]1CC[C@H]2[C@@H]3CC=C4C[C@@H](OC(=O)F)CC[C@]4(C)[C@H]3CC[C@]12C in the assay. inactive
